FYI, the data here is from paper PMC11680164.

- assay.details: Pharmacokinetics (plasma and lung) after single oral dose in mice
- Format: in vivo, Swiss Webster mice
- experimental.parameters: Swiss Webster, mouse, po; lung, 60 mg/kg p.o. single dose
observation.type: Tmax (min)
# number only, unit min dropped from output

Q) Fill in: Tmax of COC(=O)N[C@H](C(=O)N1CCC[C@H]1c1nc(-c2ccc(-c3ccc(-c4c[nH]c([C@@H]5CCCN5C(=O)[C@@H](NC(=O)OC)C(C)C)n4)cc3)cc2)c[nH]1)C(C)C is ___
A) 40.2

###

- assay.details: Pharmacokinetics (plasma and lung) after single oral dose in mice
- Format: in vivo, Swiss Webster mice
- experimental.parameters: Swiss Webster, mouse, po; plasma, 60 mg/kg p.o. single dose
observation.type: Cmax (ng/mL)
# number only, unit ng/mL dropped from output

Q) Fill in: Cmax of COC(=O)N[C@H](C(=O)N1CCC[C@H]1c1nc(-c2ccc(-c3ccc(-c4c[nH]c([C@@H]5CCCN5C(=O)[C@@H](NC(=O)OC)C(C)C)n4)cc3)cc2)c[nH]1)C(C)C is ___
A) 22200
